These data points were gathered from patent US5998362A.

Recorded EC50 for the following compounds
- Test system: DuPRO cells
- assay-text: In vitro cytotoxicity of peptidyl derivatives of doxorubicin, Alamar Blue assay, DuPRO
- Type: cell-based
- applied-conditions: 3 days incubation, read-out: DuPRO cell kill EC 50 (μM), value in parentheses
Where a SMILES comes first, the peptide text is derived from it. [ ]: non-standard residue; d: D form. The star is where a group is joined. Doxorubicin(3'-N) = COc1cccc2c1C(=O)c1c(O)c3c(c(O)c1C2=O)C[C@@](O)(C(=O)CO)C[C@@H]3O[C@H]1C[C@H](N*)[C@H](O)[C@H](C)O1; Glyceroyl(2R) = O=C([C@H](O)CO)*; X1 = COCCOCCOCCOCCOCCOCCOCC(=O)*; hArg = N=C(N)NCCCC[C@H](N)C(=O)O; 3Pal = N[C@@H](Cc1cccnc1)C(=O)O; Chg = N[C@H](C(=O)O)C1CCCCC1; Glycolyl = O=C(CO)*
recorded-metric: EC50 (µM)

compound: COc1cccc2c1C(=O)c1c(O)c3c(c(O)c1C2=O)C[C@@](O)(C(=O)CO)C[C@@H]3O[C@H]1C[C@H](NC(=O)[C@H](CC(C)C)NC(=O)[C@H](CO)NC(=O)[C@H](CCC(N)=O)NC(=O)[C@H](Cc2ccc(O)cc2)NC(=O)[C@H](CO)NC(=O)[C@H](CO)NC(=O)[C@H](CCCCNC(=N)N)NC(=O)CO)[C@H](O)[C@H](C)O1 [2-hydroxyacetyl-hRSSYQ-SL-DOX(3')] (Glycolyl-[hArg]SSYQSL-{Doxorubicin(3'-N)})
measured-on: DuPRO cells
endpoint-unit: µM
result-operator: >
observed-value: 100
--
compound: COc1cccc2c1C(=O)c1c(O)c3c(c(O)c1C2=O)C[C@@](O)(C(=O)CO)C[C@@H]3O[C@H]1C[C@H](NC(=O)[C@H](CC(C)C)NC(=O)[C@H](CO)NC(=O)[C@H](CO)NC(=O)[C@H](CO)NC(=O)[C@H](CCC(N)=O)NC(=O)[C@H](Cc2ccc(O)cc2)NC(=O)[C@H](CO)NC(=O)CO)[C@H](O)[C@H](C)O1 [2-hydroxyacetyl-SYQ-SSSL-DOX(3')] (Glycolyl-SYQSSSL-{Doxorubicin(3'-N)})
measured-on: DuPRO cells
endpoint-unit: µM
result-operator: =
observed-value: 50
--
compound: COCCOCCOCCOCCOCCOCCOCC(=O)N[C@@H](C)C(=O)N[C@@H](CO)C(=O)N[C@H](C(=O)N[C@@H](CCC(N)=O)C(=O)N[C@@H](CO)C(=O)N[C@@H](CC(C)C)C(=O)N[C@H]1C[C@H](O[C@H]2C[C@](O)(C(=O)CO)Cc3c(O)c4c(c(O)c32)C(=O)c2c(OC)cccc2C4=O)O[C@@H](C)[C@H]1O)C1CCCCC1 [PEG(6)-ASChgQ-SL-DOX(3'), PEG(6)-AlaSerChgGln-SerLeu-DOX (3')] (X1-AS[Chg]QSL-{Doxorubicin(3'-N)})
measured-on: DuPRO cells
endpoint-unit: µM
result-operator: =
observed-value: 100
--
compound: COc1cccc2c1C(=O)c1c(O)c3c(c(O)c1C2=O)C[C@@](O)(C(=O)CO)C[C@@H]3O[C@H]1C[C@H](NC(=O)[C@H](CC(C)C)NC(=O)[C@H](CO)NC(=O)[C@H](CCC(N)=O)NC(=O)[C@@H](NC(=O)[C@H](CO)NC(=O)[C@H](C)NC(=O)[C@H](CCCCNC(=N)N)NC(=O)CO)C2CCCCC2)[C@H](O)[C@H](C)O1 [2-hydroxyacetyl-hRASChgQ-SL-DOX(3')] (Glycolyl-[hArg]AS[Chg]QSL-{Doxorubicin(3'-N)})
measured-on: DuPRO cells
endpoint-unit: µM
result-operator: >
observed-value: 100
--
compound: COc1cccc2c1C(=O)c1c(O)c3c(c(O)c1C2=O)C[C@@](O)(C(=O)CO)C[C@@H]3O[C@H]1C[C@H](NC(=O)[C@H](CC(C)C)NC(=O)[C@H](CO)NC(=O)[C@H](CCC(N)=O)NC(=O)[C@@H](NC(=O)[C@H](CO)NC(=O)[C@H](CO)NC(=O)[C@H](Cc2cccnc2)NC(=O)[C@H](O)CO)C2CCCCC2)[C@H](O)[C@H](C)O1 ({Glyceroyl(2R)}-[3Pal]SS[Chg]QSL-{Doxorubicin(3'-N)})
measured-on: DuPRO cells
endpoint-unit: µM
result-operator: >
observed-value: 100
